Known melting point of a selection of molecules

Answered cases to consult:
>>> observed_result("ClCc1coc(C=C(c2ccccc2)c2ccccc2)n1")
"107 to 108 °C"
>>> observed_result("ICCCn1c2ccccc2c2ccccc21")
"152 to 156 °C"
>>> observed_result("Cc1ccccc1N(C)c1nc(=O)c2cccnc2s1")
"208 to 209 °C"
>>> observed_result("C/C(=C\\c1ccc(CO)cc1)c1ccc2c(c1)C(C)(C)CCC2(C)C")
"123 to 124 °C"
>>> observed_result("CCN(CC)c1ccc2nc(C)c(C#N)c(O)c2c1")
"> 250 °C"

Noted for CC(C)c1nn(-c2ccc(C(F)(F)F)cn2)cc1CCCCOc1ccc(CC(=O)O)cc1 : its melting point reads 130 to 131 °C

Noted for CS(=O)(=O)Nc1ccc(CC(NC(=O)C(c2ccccc2)c2ccccc2)c2ccccc2)cc1 (stereo not given) : its melting point reads 200 to 202 °C

Noted for CCCCCCC[C@H]1C(=O)OC[C@H](NC(=O)c2nccc(OC)c2O)C(=O)O[C@@H](C)[C@@H]1OC(=O)C(C)C : its melting point reads 131 to 134 °C

Noted for Cn1c([N+](=O)[O-])cnc1C(Cl)Cl : its melting point reads 52 °C

Noted for CCS(=O)(=O)c1cnc2c(c1)nc(CC(C)(C)C)n2CC1CCOCC1 : its melting point reads 191 °C

* * *

Known melting point of a selection of compounds

Answered cases to consult:
>>> observed_result("CC1(O)CCC2C3CCC45OC4(C)C(=O)C(C#N)CC5(C)C3CCC21C (centres undefined)")
"166 to 167 °C"
>>> observed_result("O=C1N(Cc2cnc(N3CCOCC3)s2)c2ccccc2C12COc1cc3c(cc12)OCO3 (centres undefined)")
"97 to 99 °C"
>>> observed_result("CCCCCCCCc1c(CCC)nc2ncnn2c1N")
"165 °C"
>>> observed_result("CS(=O)(=O)OCCC1(CCOS(C)(=O)=O)c2ccccc2Oc2ccccc21")
"121 to 122 °C"
>>> observed_result("Cc1cccc(-c2nc3cccnn3c2-c2ccnc(NC(=O)NC(C)C)c2)c1")
"193 to 195 °C"

Noted for COc1ccc(C(=O)c2c(-c3ccccc3)sc3cc(OC)ccc23)cc1 : its melting point reads 132 °C

Noted for CC1(C)CCC(C)(C)c2cc(-c3cc(-c4ccc(CO)cc4)ccc3-c3ccccc3)ccc21 : its melting point reads 134 to 136 °C

Noted for O=C(O)c1cnc(N2CCN(CC3CC3)C2=O)s1 : its melting point reads 250 to 252 °C

Noted for CCCN(CCC)Cc1nc(-c2ncn3c2CN(C)C(=O)c2c-3cccc2C(F)(F)F)no1 : its melting point reads 216 to 218 °C

Noted for O=C(CC1CCOCC1)N[C@H]1CC[C@H](CCN2CCC(c3ccc(F)c4occc34)CC2)CC1 : its melting point reads 188 °C

Noted for CCc1cc(Br)cc(CC)c1N=C(c1ccccc1)c1ccccc1 : its melting point reads 112 °C

Noted for CCC1(CCCCl)C(=O)Nc2ccccc21 (centres undefined) : its melting point reads 91 to 93 °C

Noted for CCCC(=O)N1N=C(c2ccc(N)cc2)c2cc(Cl)c(Cl)cc2CC1C (centres undefined) : its melting point reads 193 to 194 °C

Noted for COc1ccc(-c2cc(CO)c(=O)n(Cc3ccc(Cl)cc3)n2)cc1F : its melting point reads 165 °C

Noted for Clc1ccc2c(NNc3ccccc3)c3c(nc2c1)CCSC3 : its melting point reads 201 to 202 °C

Noted for COc1cc2c(cn1)C(=O)N(C(C)C)C2=O : its melting point reads 150 to 152 °C

* * *

Known melting point of a selection of compounds

Noted for NCc1ccccc1CN : its melting point reads > 250 °C

Noted for CCCCCCCC(=O)CCCCCC(=O)N[C@@H](C)C(=O)O : its melting point reads 84 to 86 °C

* * *

Known melting point of a selection of compounds

Answered cases to consult:
>>> observed_result("OC1CSC(Oc2ccccc2-c2cccnc2)C(O)C1O (stereo unspecified)")
"195 °C"
>>> observed_result("O=S(=O)(Nc1cccc2cc(-c3ncc(CO)s3)[nH]c12)c1cccs1")
"209 to 210 °C"

Noted for CCOc1cc(C(CS(C)(=O)=O)N2C(=O)c3cccc(N(S(C)(=O)=O)S(C)(=O)=O)c3C2=O)ccc1OC (stereo unspecified) : its melting point reads 277 to 279 °C

Noted for COc1ccc(C(=O)n2c(C)c(Cc3cc(=O)n(C4CCCCC4)[nH]3)c3cc(OC)ccc32)cc1 : its melting point reads 88 to 90 °C

Noted for Cc1ccnc(-c2ccc(Br)cc2)c1 : its melting point reads 126 °C

Noted for COc1ccc(Cl)c(NC(C)=S)c1 : its melting point reads 92 to 93 °C

Noted for CC1Cc2c(NN)c(Cl)cc(Cl)c2O1 (stereo unspecified) : its melting point reads 59 to 64 °C

Noted for CC(=O)N[C@@H](CC(=O)c1ccc2oc3ccccc3c2c1)C(=O)O : its melting point reads 166 to 170 °C

Noted for O=C1NC(=O)C2(CCS(=O)(=O)c3ccccc32)N1 (stereo unspecified) : its melting point reads 280 to 281 °C

Noted for CC(C)CCn1c(=O)c2c(Cl)cc(Cl)cc2n(Cc2ccccc2)c1=O : its melting point reads 89 to 92 °C

Noted for Cc1oc2c(C)c(C)c(NCc3ccccc3)c(C)c2c1-c1ccc(C(C)C)cc1 : its melting point reads 94 to 95 °C

Noted for CNc1sc2c(c1C(=O)c1ccccc1)CCCC2 : its melting point reads 128 to 130 °C

Noted for CCCCCc1ccc(C(=O)CCCC(=O)O)cc1 : its melting point reads 104 to 106 °C

Noted for COc1ccc(Sc2ccc(NC(=N)N)cc2)cc1 : its melting point reads 140 to 141 °C

Noted for CCOC(=O)[C@H]1CCc2ccc(O)cc2O1 : its melting point reads 77 to 78 °C

* * *

Known melting point of a selection of molecules

Noted for O=C1CC(O)CC(CCc2c(Cl)cc(Cl)cc2OCc2ccc(C(F)(F)F)cc2)O1 (centres undefined) : its melting point reads 104 to 105 °C

Noted for CCc1nnc2nc(-c3ccccc3)ccn12 : its melting point reads 246 to 247 °C

Noted for Cc1ccc(N2CCc3cc(Br)ccc32)c([N+](=O)[O-])c1 : its melting point reads 105 to 107 °C

Noted for Cc1ccccc1C1(O)C=C(C(C)(C)C)C(=O)C(C(C)(C)C)=C1 : its melting point reads 168 to 171 °C

* * *

Known melting point of a selection of compounds

>>> observed_result("O=C1CCc2c(-c3ccncc3)sc(-c3ccccc3F)c21")
"133 to 135 °C"

Noted for CN(C)C=NS(=O)(=O)c1cc(CCNC(=O)C(F)(F)F)ccc1I : its melting point reads 155 to 156 °C

Noted for CC(C)(C)c1ccc(CCCCC(O)CC2CCCC2)cc1NC(=O)CC1c2ccccc2Oc2ccccc21 (centres undefined) : its melting point reads 132 to 133 °C

Noted for CCC(CC)n1nc(-c2ccc(OC)cc2OC)c2cccc(C(F)(F)F)c21 : its melting point reads 115 to 116 °C

* * *

Known melting point of a selection of molecules

Answered cases to consult:
>>> observed_result("C(=Cc1ccc2nc(-c3ccccc3)oc2c1)c1ccc(-c2nc3ccccc3o2)cc1")
"233 to 237 °C"
>>> observed_result("CC(C)N(Cc1ccc2cc(NC(=O)c3ccc(-c4ccc(Cl)cc4)nc3)ccc2n1)C(C)C")
"201 to 203 °C"
>>> observed_result("COc1ccc(N2CCN(CCn3c(=O)[nH]c4cscc4c3=O)CC2)cc1")
"238 to 239 °C"

Noted for COc1cc(C(=O)C(F)(F)F)ccc1OCCCN1CCC(c2noc3cc(F)ccc23)CC1 : its melting point reads 78 to 80 °C

* * *

Known melting point of a selection of molecules
Give just the number in °C; leave the unit off.

>>> observed_result("CC(C)C1(n2cccn2)CN(C(=O)O)N=C1c1ccc(F)cc1 (stereo not given)")
125

Now let's try a different one.
Noted for CCCNc1nc(N)nc2c1ncn2C1CC(F)C(CO)O1 (stereo not given) : its melting point reads 153

* * *

Known melting point of a selection of compounds

Answered cases to consult:
>>> observed_result("N#Cc1cccc(CSc2nnc(-c3ccc4ncc(-c5ccccn5)n4c3)o2)c1")
"192 to 193 °C"
>>> observed_result("CCCc1ccc(O)c2c(=O)cc(-c3nnn[nH]3)oc12")
"242 to 245 °C"
>>> observed_result("CNC(=O)CN(c1ccc(Cl)cc1N(C)c1ccccc1)S(=O)(=O)c1ccc(OC)c(OC)c1")
"149 °C"
>>> observed_result("COC(=O)c1ccccc1NC(=O)c1ccc(Br)c(C)c1")
"123 °C"
>>> observed_result("CN1C(=O)C2C3CCC(C3)C2(c2ccc(F)c(F)c2)C1=O (stereo not given)")
"96 to 100 °C"

Noted for CN(C)c1ccc2cc(C#N)oc2c1 : its melting point reads 70 to 71 °C

Noted for Clc1ccccc1-c1cc(-c2ccccc2)c(-c2ccccc2)s1 : its melting point reads 103 to 107 °C

Noted for CCCn1nc2c(N)nc3ccccc3c2c1CCCCCl : its melting point reads 172 to 173 °C

Noted for O=C(O)CCNC1CCCN(c2ccc3c(C(=O)NCC45CC6CC(CC(C6)C4)C5)c(Cl)ccc3n2)C1 (stereo not given) : its melting point reads 176 to 189 °C

Noted for COC1CCN(S(=O)(=O)c2ccc(S(N)(=O)=O)c(Cl)c2)CC1 : its melting point reads 165 to 167 °C
